# Assay setup: acidic group
Label scheme for pKa: low bin = under 5, mid bin = from 5 up to 9, high bin = 9 and over

A selection of reference data follows.
Compound | Assigned class
CCc1ccccc1C(=O)O | low bin
Brc1ccc2c(c1)C([P+](c1ccccc1)(c1ccccc1)c1ccccc1)c1ccccc1-2 (stereo unspecified) | mid bin
C[n+]1ccc(C(=O)O)cc1 | low bin

query: Place this compound in its band: CCCc1nnn[nH]1
result: mid bin

* * *

Known pKa of a selection of compounds
# Assay setup: acidic group
Provide a numeric answer; units are not to be included.

Here's what some known entries look like.
Compound | pKa
COc1nc(N)c2[nH]cnc2n1 | 10
CN(C)c1cc[n+](O)cc1 | 3.9
O=[PH](O)C([NH2+]Cc1ccc[nH+]c1)c1ccccc1O (centres undefined) | 2.35
CC(=O)CC(C)=O | 8.85
[NH3+][C@H]1CC[C@@H](C(=O)O)CC1 | 4.6
Cc1cc(C(=O)O)cs1 | 4.24
Cc1ccc(S(=O)(=O)NCC(=O)[O-])cc1 | 11.4
O=C(O)[C@H]1C[C@@H]1c1ccccc1 | 4.54
Nc1nc2c(ncn2[C@H]2O[C@@H](CO)[C@H](O)[C@@H]2O)c(O)[nH+]1 | 1.9
Cc1cc(N(C)C)cc[n+]1O | 4.37

query: # get_value(readout='pKa', item= [O-]\N=C1/CCCC(=N\O)/C1=N/[O-] )
result: 12.2

query: Could you share which pKa value was measured for O=CNO ?
result: 8.77

query: Fill blank: measured pKa of the compound CCCC[NH+](CCS)CCCC is ____.
result: 7.76

query: Form field: reported pKa of O=c1[nH]c(=O)n(-c2ccccc2)[nH]1
result: 4.9
